Provenance of the data: patent US20120207763A1

- Target Or System: JAK-3 (Homo sapiens)
- Construct: GST fusion constructs of the kinase domains of both enzymes are used; GST
- Sequence (P52333 822-1111 limits assumed): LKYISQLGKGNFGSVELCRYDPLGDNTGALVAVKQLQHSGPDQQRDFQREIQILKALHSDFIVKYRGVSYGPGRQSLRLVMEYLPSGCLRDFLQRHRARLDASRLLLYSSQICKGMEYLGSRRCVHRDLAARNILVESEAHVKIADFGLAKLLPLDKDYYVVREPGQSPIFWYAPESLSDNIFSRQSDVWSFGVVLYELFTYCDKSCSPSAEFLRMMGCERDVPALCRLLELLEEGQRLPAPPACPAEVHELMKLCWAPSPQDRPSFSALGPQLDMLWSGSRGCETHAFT
- Test Description: JAK LANCE enzymatic assay (JAK-3)
- Type: biochemical
- Conditions: Table B; read-out: Jak-3 Lance/ IC50 [nmol I-1]
pIC50: −log10 of the molar value.
Measurement Kind: pIC50

Study these solved cases before continuing.
CCC(CC)n1c(C)cc2cnc(Nc3ccc(C(=O)NC4CCCC4)cc3)nc21 [drawing 124] : ≤ 7.00
CC(=O)N1CCN(c2ccc(Nc3ncc4c(C)cn(C5CCCCC5)c4n3)cc2)CC1 [drawing 120] : ≤ 7.00
Cc1cn(C2CCCC2)c2nc(Nc3ccc(N4CCN(C)CC4)cc3)ncc12 : ≤ 7.00
CCC(CC)N1C(=O)C(C)(C)c2cnc(Nc3ccc(N4CCNCC4)cc3)nc21 [drawing 112] : ≤ 7.00

Please state, for each entry, its recorded pIC50.
1. Cc1cn(C2CC2)c2nc(Nc3ccc(N4CCN(C)CC4)cc3)ncc12 [drawing 121]
2. Cc1cn(C2CCCCC2)c2nc(Nc3ccc(N4CCNCC4)cc3)ncc12
3. Cc1cn(C2CCCCC2)c2nc(Nc3ccc(N4CCN(C)CC4)cc3)ncc12 [drawing 115]
4. CC(=O)N1CCN(c2ccc(Nc3ncc4ccn(C5CCCC5)c4n3)cc2)CC1 [drawing 111]
5. CCC(CC)n1cc(C)c2cnc(Nc3ccc(C(=O)NC4CCCC4)cc3)nc21 [drawing 116]

Found:
≤ 7.00
≤ 7.00
≤ 7.00
≤ 7.00
≤ 7.00

Please state, for each entry, its recorded pIC50.
1. Cc1cn(C2CCCCC2)c2nc(Nc3ccc(N4CCNCC4)cn3)ncc12 [drawing 127]
2. CCC(CC)n1ccc2cnc(Nc3ccc(C(=O)NC4CCCC4)cc3)nc21 [drawing 99]
3. CCC(CC)n1cc(C)c2cnc(Nc3ccc(N4CCN(C(C)=O)CC4)cc3)nc21 [drawing 101]
4. CCOC(OCC)c1cc2cnc(Nc3ccc(N4CCN(C(C)=O)CC4)cc3)nc2n1C(CC)CC [drawing 117]
5. CCC(CC)N1C(=O)C(C)(C)c2cnc(Nc3ccc(N4CCN(C)CC4)cc3)nc21 [drawing 105]
6. CCC(CC)n1c(C)cc2cnc(Nc3ccc(N4CCNCC4)cc3)nc21 [drawing 125]
7. CCC(CC)n1c(CO)cc2cnc(Nc3ccc(N4CCN(C(C)=O)CC4)cc3)nc21 [drawing 119]

Found:
1: ≤ 7.00; 2: ≥ 7.00; 3: ≤ 7.00; 4: ≤ 7.00; 5: ≤ 7.00; 6: ≥ 7.00; 7: ≥ 7.00

====

Answer each item with its documented IC50.
- Target Or System: JAK-3 (Homo sapiens)
- Construct: GST fusion constructs of the kinase domains of both enzymes are used; GST
- Test Description: JAK LANCE enzymatic assay (JAK-3)
- Assay type: biochemical
- Conditions: Table B; read-out: Jak-3 Lance/ IC50 [nmol I-1]

Study these solved cases before continuing.
CCC(CC)n1c(C=O)cc2cnc(Nc3ccc(N4CCN(C(C)=O)CC4)cc3)nc21 [drawing 118] : ≤ 0.1 µM
CCC(CC)n1cc(C)c2cnc(Nc3ccc(N4CCN(C)CC4)cc3)nc21 [drawing 103] : ≥ 0.1 µM
Cc1cn(C2CCCC2)c2nc(Nc3ccc(N4CCNCC4)cn3)ncc12 [drawing 97] : ≥ 0.1 µM
Cc1cn(C2CC2)c2nc(Nc3ccc(N4CCNCC4)cn3)ncc12 [drawing 123] : ≥ 0.1 µM

As a next step, examine the compound that follows.
Lookup: Which IC50 value is on record for CCC(CC)n1ccc2cnc(NC3CC3)nc21 [drawing 100] ?
Found: ≥ 0.1 µM

====

- Target Or System: CDK2/Cyclin-A kinase complex (Homo sapiens)
- Test Description: CDK2 IMAP fluorescence polarization assay
- Assay type: biochemical
- Conditions: Table E; read-out: CDK2cyA IMAP/IC50 [umol l − 1]
Measurement Kind: IC50

Study these solved cases before continuing.
CCC(CC)n1c(C(=O)Nc2cccc(C(F)(F)F)c2)cc2cnc(Nc3ccc(N4CCNCC4)cc3)nc21 [Example 350] : > 15 µM
Cc1cn(C2CCCC2)c2nc(Nc3ncccn3)ncc12 [Example 296] : > 10 µM
CN(C)C(=O)c1cc2cnc(Nc3ccc(N4CCNCC4)cc3)nc2n1C1CCCC1 [Example 338] : < 10 µM
CC(=O)N1CCN(c2ccc(Nc3ncc4ccn(C5CCCC5)c4n3)nc2)CC1 [Example 252] : > 10 µM
Cc1cc(-c2c(C)c3cnc(Nc4ccc(N5CCNCC5)cn4)nc3n2C2CCCC2)[nH]n1 [Example 404] : > 10 µM
Cc1noc(-c2c(C)c3cnc(Nc4ccc(N5CCNCC5)cn4)nc3n2C2CCCC2)n1 [Example 407] : < 10 µM
Cc1cn(C2CCCC2)c2nc(Nc3ccc(F)cc3)ncc12 [Example 442] : < 10 µM
CCC(CC)n1c(C)cc2cnc(Nc3ccc(C(=O)NC4CCCC4)cc3)nc21 [Example 331] : < 1 µM
CCC(C)n1ccc2cnc(Nc3ccc(N4CCN(C(C)=O)CC4)cc3)nc21 (centres unmarked) [Example 222] : < 10 µM
Cc1cn(C2CCCC2)c2nc(Nc3ccc(S(N)(=O)=O)cc3)ncc12 [Example 288] : < 1 µM

Please state, for each entry, its recorded IC50.
1. CCC(CC)n1c(C(=O)Nc2ccc(OC)cc2)cc2cnc(Nc3ccc(N4CCNCC4)cc3)nc21 [Example 347]
2. Cc1cn(C2CCCC2)c2nc(Nc3ccc(N4CCN(S(C)(=O)=O)CC4)cc3)ncc12 [Example 286]
3. Cc1cn(C2CCCC2)c2nc(Nc3cccnc3)ncc12 [Example 300]
4. CN(C)c1ccc(Nc2ncc3ccn(C4CCCC4)c3n2)cc1 [Example 262]
5. Cc1cn(C2CCCC2)c2nc(Nc3ccc(N4CCOCC4)cn3)ncc12 [Example 302]

Found:
> 10 µM
< 10 µM
< 1 µM
< 10 µM
> 10 µM

Please state, for each entry, its recorded IC50.
1. CCC(CC)n1c(C(=O)Nc2ccc(C(C)(C)C)cc2)cc2cnc(Nc3ccc(N4CCNCC4)cc3)nc21 [Example 349]
2. CCC(CC)n1c(COC)cc2cnc(Nc3ccc(N4CCN(C(C)=O)CC4)cc3)nc21 [Example 379]

Found:
> 15 µM
> 10 µM

====

- Target Or System: CDK4/Cyclin-D1 kinase complex (Homo sapiens)
- Sequence (P11802 whole entry): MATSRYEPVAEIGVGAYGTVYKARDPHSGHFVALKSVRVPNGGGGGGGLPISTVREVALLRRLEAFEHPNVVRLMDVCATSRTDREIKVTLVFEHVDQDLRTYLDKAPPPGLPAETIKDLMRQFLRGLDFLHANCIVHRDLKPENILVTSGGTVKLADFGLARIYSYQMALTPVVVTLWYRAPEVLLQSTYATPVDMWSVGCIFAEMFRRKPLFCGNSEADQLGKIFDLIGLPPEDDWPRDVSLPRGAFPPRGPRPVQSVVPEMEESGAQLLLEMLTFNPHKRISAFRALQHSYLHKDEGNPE
- Sequence (P24385 whole entry partner): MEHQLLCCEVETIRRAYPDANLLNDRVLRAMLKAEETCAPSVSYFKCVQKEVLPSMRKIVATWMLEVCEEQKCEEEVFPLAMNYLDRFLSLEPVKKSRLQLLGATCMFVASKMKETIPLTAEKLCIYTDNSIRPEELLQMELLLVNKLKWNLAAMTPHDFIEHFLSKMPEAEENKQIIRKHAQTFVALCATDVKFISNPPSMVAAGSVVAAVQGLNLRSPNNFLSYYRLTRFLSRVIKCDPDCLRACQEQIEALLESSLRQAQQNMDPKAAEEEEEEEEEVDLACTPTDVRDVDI
- Test Description: CDK4 ELISA based assay, Rb Ser780 phosphorylation
- Type: biochemical
- Conditions: Table E; read-out: CDK4 ELISA assay IC50 [umol l−]
pIC50: −log10 of the molar value.
Measurement Kind: pIC50

CCC(CC)n1c(C(=O)O)cc2cnc(Nc3ccc(N4CCN(C(C)=O)CC4)cc3)nc21 : > 6.00
Cc1cc2cnc(Nc3ccc(N4CCNCC4)cc3)nc2n1C1CCCC1 : > 6.00
CC(=O)c1cn(C2CCCC2)c2nc(Nc3ccc(N4CCNCC4)cc3)ncc12 : < 5.00
CCC(CC)n1ccc2cnc(Nc3ccc(C4CCCN(C(=O)CC#N)C4)cc3)nc21 (centres unmarked) : < 5.00
CCCC(C(=O)OCC)n1ccc2cnc(Nc3ccc(N4CCN(C(C)=O)CC4)cc3)nc21 (centres unmarked) : < 5.00
CCC(CC)n1c(COC)cc2cnc(Nc3ccc(N4CCN(C(=O)OC(C)(C)C)CC4)cc3)nc21 : < 5.00
CCC(CC)n1c(C)cc2cnc(Nc3ccc(N4CCN(C(C)=O)CC4)cc3)nc21 : < 5.00
CCC(CC)n1c(C=O)cc2cnc(Nc3ccc(N4CCN(C(C)=O)CC4)cc3)nc21 : > 6.00

Please state, for each entry, its recorded pIC50.
1. CCC(C(=O)O)n1ccc2cnc(Nc3ccc(N4CCN(C(C)=O)CC4)cc3)nc21 (centres unmarked)
2. CCC(CC)n1c(C)cc2cnc(Nc3ccc(N4CCNCC4)cc3)nc21
3. CCC(CC)n1c(COC)cc2cnc(Nc3ccc(C(=O)NC4CCCC4)cc3)nc21
4. CCC(CC)n1ccc2cnc(NC3CC3)nc21
5. CC(=O)c1c(C)n(C2CCCC2)c2nc(Nc3ccc(N4CCNCC4)cc3)ncc12
6. CCC(CC)n1cc(C(=O)OC)c2cnc(Nc3ccc(N4CCN(C(C)=O)CC4)cc3)nc21
7. CCC(CC)n1ccc2cnc(Nc3cccc(OCCn4ccnc4)c3)nc21
8. CCC(CC)n1c(COC)cc2cnc(Nc3ccc(N4CCNCC4)cc3)nc21

Found:
1: < 5.00; 2: < 5.00; 3: < 5.00; 4: < 5.00; 5: > 5.00; 6: < 5.00; 7: > 5.00; 8: < 5.00

Please state, for each entry, its recorded pIC50.
1. CCC(CC)n1ccc2cnc(Nc3ccc(N4CCN(C)CC4)cn3)nc21
2. CCC(CC)n1ccc2cnc(Nc3ccc(C4CCCNC4)cc3)nc21 (centres unmarked)
3. CC(=O)N1CCN(c2ccc(Nc3ncc4c(C)cn(C5CC5)c4n3)cc2)CC1
4. CCC(CC)n1ccc2cnc(Nc3ccc(N4CCN(C)CC4)c(F)c3)nc21

Found:
["> 5.00", "> 5.00", 5.10, "> 5.00"]

Please state, for each entry, its recorded pIC50.
1. CCC(CC)n1cc(C)c2cnc(Nc3ccc(C(=O)NC4CCCC4)cc3)nc21
2. CCC(CC)n1ccc2cnc(Nc3ccc(N4CCN(C(C)=O)CC4)cn3)nc21

Found:
["< 5.00", "< 5.00"]

Lookup: Request - read-out pIC50 | tested on CDK4/Cyclin-D1 kinase complex (Homo sapiens) | molecule `CCOC(OCC)c1cc2cnc(Nc3ccc(N4CCN(C(C)=O)CC4)cc3)nc2n1C(CC)CC`
Found: < 5.00
